Ref: PubChem BioAssay (NCI)

# Lookup of reported TGI keyed by entry
- System: EKVX NSCLC
- Measurement Protocol: NCI tumour cell line growth inhibition, 48 h

Study these solved cases before continuing.
{"columns": ["Molecule", "TGI"],
 "data": [
  ["CCCCCC(C[N+]1(C)CCOCC1)C(=O)/C=C/c1ccccc1 (stereo unspecified)", "38.2 µM"],
  ["Clc1ccc(Cl)c(Nc2ccnc(SCc3ccccc3)n2)c1", "> 100 µM"],
  ["Cc1cccc2c1[C@]13OC(C)[C@]4(C)CC5OC(=O)[C@@]1(C)[C@@H]5[C@]34C(=O)O2 (stereo partly specified)", "> 100 µM"],
  ["CN1CCOC1(C)CO (stereo unspecified)", "> 100 µM"],
  ["O=S(O)CCCCSSCc1ccccc1CSSCCCCS(=O)O", "> 100 µM"]
]}

Could you share which TGI value was measured for `COc1ccc(CNc2c3ccccc3nc3ccccc23)cc1OC` ? 12.4 µM

Look at this molecule and give its reported TGI. `COc1cc(/C=C2\C[C@H]3[C@@H]4CC=C5C[C@@H](O)CC[C@]5(C)[C@H]4CC[C@]3(C)C2=O)cc(OC)c1OC` > 100 µM

# query: TGI of entry N#CC1Nc2ccccc2[C@@H](O)C1O (stereo partly specified) > 100 µM

So what does the record say about TGI for `O=C1NC(=O)C(CCO)(c2ccccc2)C(=O)N1` ? > 100 µM

Record request: TGI value, item C/C(=C1/CCCC2(N=NCC2c2ccccc2)C1=O)c1ccccc1 (stereo unspecified) > 100 µM

Please report the recorded TGI for `O=C(O)c1ccc(NNc2cc(=O)[nH]c(=O)[nH]2)cc1` . > 100 µM
